Reference for the values: ChEMBL document CHEMBL5303304

Test system: U2OS
TEST DESCRIPTION: Incucyte cell viability with U2OS; also: unitless GR value; below 1 slowed growth and below 0 cell loss
Type: toxicity, cell-based
MEASUREMENT PARAMETERS: human, 18 h, 10 µM, compound concentration 10 uM, replicate number 2
One threshold, 0.9, splits the recorded Growth Rate values: lower ones are Criterion met, equal or higher ones are Criterion not met.

1) C[C@@H](NC(=O)Cc1ccc(C2CC2)cc1)c1ccc(OCC(F)(F)F)cn1 Criterion met
2) COC[C@@H](C)N[C@H]1CC[C@H](Nc2cc(-c3cccc(NCC4(C#N)CCOCC4)n3)c(Cl)cn2)CC1 Criterion met
3) Nc1ncnc2[nH]c(-c3ccccc3)nc12 Criterion not met

## Input Dear reviewer, please state whether COc1c(C(=O)/C=C/c2ccccc2)c(O)c(OC)c2occc12 has Growth Rate strictly beneath 0.9.
## Output Criterion met

## Input Just wondering, is Growth Rate of CN1CC(=O)N(C)c2cnc(Nc3ccc(NC(=O)Nc4cccc(C(=O)O)c4)cc3)nc21 below 0.9?
## Output Criterion not met

## Input Criterion: Growth Rate strictly below 0.9. Is it met by COc1cc(-c2cc(-c3cccc(O)c3)cnc2N)cc(OC)c1OC ?
## Output Criterion met

## Input Is Growth Rate strictly under 0.9 for the entry CCN1CCN(Cc2ccc(Nc3ncc(F)c(-c4cc(F)c5nc(C)n(C(C)C)c5c4)n3)nc2)CC1.CS(=O)(=O)O ?
## Output Criterion not met
